Numbers sourced from patent US20260234242A1.

Target: T1, his-tagged human CDH6 extracellular region protein (hCDH6 ECD-his) (human, UniProt P55285 19-615)
T1 construct: also called Human CDH6-his; hCDH6-his; not shown: his tag
T1 sequence: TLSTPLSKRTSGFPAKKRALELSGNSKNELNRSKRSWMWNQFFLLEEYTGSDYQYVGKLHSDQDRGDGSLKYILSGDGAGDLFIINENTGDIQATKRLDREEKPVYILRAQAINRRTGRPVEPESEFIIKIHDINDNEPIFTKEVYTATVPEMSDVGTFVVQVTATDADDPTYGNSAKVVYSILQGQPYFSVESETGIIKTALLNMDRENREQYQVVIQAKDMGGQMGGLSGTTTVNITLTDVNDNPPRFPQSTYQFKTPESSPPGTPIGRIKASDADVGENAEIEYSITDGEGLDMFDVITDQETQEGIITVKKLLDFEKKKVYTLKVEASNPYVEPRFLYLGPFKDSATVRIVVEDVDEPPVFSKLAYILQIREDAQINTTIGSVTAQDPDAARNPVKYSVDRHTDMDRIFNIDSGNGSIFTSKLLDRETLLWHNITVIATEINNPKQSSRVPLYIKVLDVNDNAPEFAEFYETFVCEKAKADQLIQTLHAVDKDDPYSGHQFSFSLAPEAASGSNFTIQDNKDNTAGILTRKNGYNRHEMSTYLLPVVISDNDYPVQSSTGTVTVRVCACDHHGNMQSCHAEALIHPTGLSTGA
Assay: ELISA, coated antigen; ELISA, coated hCDH6 ECD-his; plateau signal
binders and their reported Max OD450
Value expressed in OD450; do not type the unit.

Problem: Return the recorded Max OD450 value; entry: CHI-CDH6-4 (antibody, human IgG1, kappa, V domains shown, also called CH1-CDH6-4; chimeric antibody of murine CDH6-4) VH: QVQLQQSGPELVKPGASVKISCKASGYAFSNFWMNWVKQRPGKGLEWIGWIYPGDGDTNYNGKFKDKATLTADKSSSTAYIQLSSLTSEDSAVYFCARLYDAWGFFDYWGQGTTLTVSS VL: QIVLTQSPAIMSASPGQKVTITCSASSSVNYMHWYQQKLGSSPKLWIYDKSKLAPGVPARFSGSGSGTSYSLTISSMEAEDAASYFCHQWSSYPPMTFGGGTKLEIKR
Solution: 2.14

Continue with the binder presented below.
Problem: For the binder CHI-CDH6-3 (antibody, human IgG1, kappa, V domains shown, also called CH1-CDH6-3; chimeric antibody of murine CDH6-3) VH: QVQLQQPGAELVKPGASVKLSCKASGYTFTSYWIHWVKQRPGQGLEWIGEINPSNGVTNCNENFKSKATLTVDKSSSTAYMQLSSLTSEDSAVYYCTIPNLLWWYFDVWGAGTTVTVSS VL: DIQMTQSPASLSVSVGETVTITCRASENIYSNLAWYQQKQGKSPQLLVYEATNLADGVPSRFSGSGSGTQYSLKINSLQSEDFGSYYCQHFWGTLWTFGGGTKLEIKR , give its reported Max OD450.
Solution: 2.56
